assay: Selectivity index, ratio of IC50 for rat H9c2 cells to IC50 for human BJ cells; assay type: toxicity; conditions: H9c2 cells and BJ cells, read-out: Ratio IC50
quantity.kind: selectivity ratio
Format: numeric value only, no unit, no commentary.

compound: O=C(Nc1cccc(Cl)c1)NC1CCN(CCC(Oc2ccc(C(F)(F)F)cc2)c2cccs2)CC1 (racemic)
selectivity ratio: 2
--
compound: O=S(=O)(NC1CCN(CCC(Oc2ccc(C(F)(F)F)cc2)c2ccccc2)CC1)c1cccc(Cl)c1 (racemic)
selectivity ratio: 2

What does the record list as selectivity ratio for O=S(=O)(NC1CCN(CCC(Oc2ccc(C(F)(F)F)cc2)c2cccs2)CC1)c1cccc(Cl)c1 (racemic) ?
2

###

test: Selectivity index, ratio of IC50 for cytotoxicity against rat H9c2 cells to MIC for antibacterial activity against multidrug resistant Staphylococcus epidermidis clinical isolates; type: toxicity, cell-based; conditions: read-out: Selectivity Index
quantity.kind: selectivity ratio
Format: numeric value only, no unit, no commentary.

Known results for compounds:
compound: O=S(=O)(NC1CCN(CCC(Oc2ccc(C(F)(F)F)cc2)c2cccs2)CC1)c1cccc(Cl)c1 (racemic)
measured: 2.8

compound: CC(=O)NC[C@H]1CN(c2ccc(N3CCOCC3)c(F)c2)C(=O)O1 [LINEZOLID]
measured: 7.3

What does the record list as selectivity ratio for O=C(Nc1cccc(Cl)c1)NC1CCN(CCC(Oc2ccc(C(F)(F)F)cc2)c2cccs2)CC1 (racemic) ?
15.3

What does the record list as selectivity ratio for O=S(=O)(NC1CCN(CCC(Oc2ccc(C(F)(F)F)cc2)c2ccccc2)CC1)c1cccc(Cl)c1 (racemic) ?
0.7

###

test system: Staphylococcus epidermidis; assay: Antibiofilm activity against Staphylococcus epidermidis clinical isolates assessed as eradication of existing biofilms measured after 24 hrs by confocal laser scanning microscopy analysis; type: functional
quantity.kind: MBEC90 (µg/mL)
Quick note: give the figure in µg/mL, leave out the unit.

molecule: O=C(Nc1cccc(Cl)c1)NC1CCN(CCC(Oc2ccc(C(F)(F)F)cc2)c2cccs2)CC1 (racemic)
unit.annotation: µg/mL
measured: 31.25

# next molecule below
What does the record list as MBEC90 for `CC(=O)NC[C@H]1CN(c2ccc(N3CCOCC3)c(F)c2)C(=O)O1` ?
50

###

test system: Staphylococcus epidermidis; test: Antibiofilm activity against Staphylococcus epidermidis clinical isolates assessed as inhibition of biofilm formation measured after 24 hrs by confocal laser scanning microscopy analysis; assay type: functional
quantity.kind: MBIC90 (µg/mL)
Quick note: give the figure in µg/mL, leave out the unit.

compound: O=C(Nc1cccc(Cl)c1)NC1CCN(CCC(Oc2ccc(C(F)(F)F)cc2)c2cccs2)CC1 (racemic)
unit.annotation: µg/mL
MBIC90: 31.25

# next compound below
What is its MBIC90 for Staphylococcus epidermidis? Entry: CC(=O)NC[C@H]1CN(c2ccc(N3CCOCC3)c(F)c2)C(=O)O1 [LINEZOLID]
50
